- Test system: DU-145
- Method Description: Cytotoxicity against human DU145 cells at 100 uM after 2 days by sulforhodamine B assay
- Type: functional
- Study Conditions: DU-145, 48 h
Assay Metric: inhibition at 100 µM (%)
Output spec: scalar in %, unitless text.

O=C(Cc1ccccc1)Nn1c(CC2CCCCC2)nc2c(-c3ccc(Cl)cc3)n[nH]c2c1=O = 79.8

We now examine a further compound.
Input line: # get_value(readout='inhibition at 100 µM', item= `CC(C)Cc1n[nH]c2c(=O)n(NC(=O)c3ccncc3)c(-c3cccc([N+](=O)[O-])c3)nc12` )
Output line: 55.3

---

- Experimental Target: Epidermal growth factor receptor (Homo sapiens) (UniProt P00533)
- Sequence (P00533 whole entry): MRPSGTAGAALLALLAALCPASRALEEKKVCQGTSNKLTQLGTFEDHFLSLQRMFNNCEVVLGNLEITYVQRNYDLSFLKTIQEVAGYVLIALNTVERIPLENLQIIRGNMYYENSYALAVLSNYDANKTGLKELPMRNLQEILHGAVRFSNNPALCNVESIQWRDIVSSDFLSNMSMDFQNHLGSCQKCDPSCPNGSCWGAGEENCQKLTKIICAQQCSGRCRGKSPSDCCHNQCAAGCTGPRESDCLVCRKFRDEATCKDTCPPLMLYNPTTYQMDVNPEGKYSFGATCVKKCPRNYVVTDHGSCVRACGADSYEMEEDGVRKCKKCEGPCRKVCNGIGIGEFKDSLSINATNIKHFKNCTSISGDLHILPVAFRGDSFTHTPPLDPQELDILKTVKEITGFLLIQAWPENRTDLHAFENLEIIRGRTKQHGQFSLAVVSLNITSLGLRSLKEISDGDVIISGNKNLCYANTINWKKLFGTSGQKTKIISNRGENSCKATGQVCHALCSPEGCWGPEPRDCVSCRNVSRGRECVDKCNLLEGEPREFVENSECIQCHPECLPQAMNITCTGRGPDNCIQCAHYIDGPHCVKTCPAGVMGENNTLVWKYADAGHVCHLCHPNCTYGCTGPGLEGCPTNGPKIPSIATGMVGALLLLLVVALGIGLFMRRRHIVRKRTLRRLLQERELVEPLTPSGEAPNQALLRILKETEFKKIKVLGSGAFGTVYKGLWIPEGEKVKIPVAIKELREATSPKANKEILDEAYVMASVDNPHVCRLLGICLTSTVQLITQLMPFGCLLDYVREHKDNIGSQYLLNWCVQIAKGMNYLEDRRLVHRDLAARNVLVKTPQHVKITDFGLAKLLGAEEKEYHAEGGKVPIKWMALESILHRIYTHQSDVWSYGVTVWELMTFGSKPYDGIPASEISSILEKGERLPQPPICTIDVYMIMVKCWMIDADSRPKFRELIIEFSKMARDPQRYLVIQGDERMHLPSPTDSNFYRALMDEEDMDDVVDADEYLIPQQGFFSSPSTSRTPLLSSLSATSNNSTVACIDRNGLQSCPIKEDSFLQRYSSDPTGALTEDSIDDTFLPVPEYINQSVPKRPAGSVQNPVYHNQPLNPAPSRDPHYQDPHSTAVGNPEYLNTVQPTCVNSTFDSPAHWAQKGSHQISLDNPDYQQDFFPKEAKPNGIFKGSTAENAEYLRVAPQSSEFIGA
- Method Description: Inhibition of human EGFR assessed as remaining enzyme activity at 10 uM; values are per cent of control
Assay Metric: residual activity (%)
Output spec: scalar in %, unitless text.

Input line: Write down the reported residual activity of `O=C(Cc1ccccc1)Nn1c(CC2CCCCC2)nc2c(-c3ccc(Cl)cc3)n[nH]c2c1=O` , test system: Epidermal growth factor receptor (Homo sapiens) (UniProt P00533).
Output line: 113

Input line: Write down the reported residual activity of `Cc1cccc(C(=O)Nn2c(CC3CCCCC3)nc3c(-c4ccc(Cl)cc4)n[nH]c3c2=O)c1` , test system: Epidermal growth factor receptor (Homo sapiens) (UniProt P00533).
Output line: 85

Input line: Write down the reported residual activity of `CCCCCc1nc2c(-c3ccc(Cl)cc3)n[nH]c2c(=O)n1NC(=O)c1cccc(C)c1` , test system: Epidermal growth factor receptor (Homo sapiens) (UniProt P00533).
Output line: 82

The measurements presented in this section are drawn from ChEMBL document CHEMBL1154962.
